Molecular target: MAN2A1 (Homo sapiens)
Sequence (Q16706 1-1144): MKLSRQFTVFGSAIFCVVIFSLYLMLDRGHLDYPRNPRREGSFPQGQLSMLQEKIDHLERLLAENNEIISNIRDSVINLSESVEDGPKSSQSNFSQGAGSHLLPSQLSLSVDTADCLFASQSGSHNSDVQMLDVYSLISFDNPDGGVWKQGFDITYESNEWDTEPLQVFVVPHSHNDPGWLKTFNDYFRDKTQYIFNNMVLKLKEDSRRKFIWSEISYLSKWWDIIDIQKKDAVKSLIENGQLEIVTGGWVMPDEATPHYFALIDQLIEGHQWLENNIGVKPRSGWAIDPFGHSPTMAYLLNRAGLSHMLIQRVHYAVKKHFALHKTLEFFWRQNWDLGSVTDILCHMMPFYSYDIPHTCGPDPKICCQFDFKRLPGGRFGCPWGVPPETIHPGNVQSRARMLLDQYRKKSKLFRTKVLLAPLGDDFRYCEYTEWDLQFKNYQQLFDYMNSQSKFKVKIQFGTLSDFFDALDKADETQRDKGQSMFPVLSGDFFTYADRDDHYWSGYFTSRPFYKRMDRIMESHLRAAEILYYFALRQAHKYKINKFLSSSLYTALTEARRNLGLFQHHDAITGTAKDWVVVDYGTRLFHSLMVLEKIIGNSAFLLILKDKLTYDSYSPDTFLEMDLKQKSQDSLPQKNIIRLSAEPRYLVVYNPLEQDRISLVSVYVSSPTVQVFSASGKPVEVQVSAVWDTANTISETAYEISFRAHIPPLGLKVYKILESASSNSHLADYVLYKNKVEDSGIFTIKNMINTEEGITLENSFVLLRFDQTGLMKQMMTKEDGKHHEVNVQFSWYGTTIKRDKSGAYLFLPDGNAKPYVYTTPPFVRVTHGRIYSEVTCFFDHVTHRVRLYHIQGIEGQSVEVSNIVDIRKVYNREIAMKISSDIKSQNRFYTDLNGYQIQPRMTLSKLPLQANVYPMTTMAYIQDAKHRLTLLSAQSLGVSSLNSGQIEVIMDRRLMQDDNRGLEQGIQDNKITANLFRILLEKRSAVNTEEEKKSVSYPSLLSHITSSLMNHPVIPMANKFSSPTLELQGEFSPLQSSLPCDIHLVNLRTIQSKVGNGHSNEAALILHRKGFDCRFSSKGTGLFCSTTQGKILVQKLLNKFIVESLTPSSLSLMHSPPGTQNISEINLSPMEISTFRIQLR
Test: 4-MU-α-man activity assay in overexpressed cell lysates
Conditions: Zn2+
pIC50: −log10 of the molar value.
measure name: pIC50

**Query** Could you share which pIC50 value was measured for O=S1(=O)N[C@@H]2[C@@H](O)[C@@H](O)[C@H](O)[C@@H](CO)[C@H]2O1 [compound 6, 1,6-trans-manno-cyclosulfamidate] ?
**Result** < 3.00

###

target: MAN2C1 (Homo sapiens, UniProt Q9NTJ4); construct: expressed in transfected cells; assay: 4-MU-α-man activity assay in overexpressed cell lysates; type: biochemical; settings: Co2+ (cobalt as the metal ion); read-out: IC50 (apparent)
Sequence (Q9NTJ4 whole entry): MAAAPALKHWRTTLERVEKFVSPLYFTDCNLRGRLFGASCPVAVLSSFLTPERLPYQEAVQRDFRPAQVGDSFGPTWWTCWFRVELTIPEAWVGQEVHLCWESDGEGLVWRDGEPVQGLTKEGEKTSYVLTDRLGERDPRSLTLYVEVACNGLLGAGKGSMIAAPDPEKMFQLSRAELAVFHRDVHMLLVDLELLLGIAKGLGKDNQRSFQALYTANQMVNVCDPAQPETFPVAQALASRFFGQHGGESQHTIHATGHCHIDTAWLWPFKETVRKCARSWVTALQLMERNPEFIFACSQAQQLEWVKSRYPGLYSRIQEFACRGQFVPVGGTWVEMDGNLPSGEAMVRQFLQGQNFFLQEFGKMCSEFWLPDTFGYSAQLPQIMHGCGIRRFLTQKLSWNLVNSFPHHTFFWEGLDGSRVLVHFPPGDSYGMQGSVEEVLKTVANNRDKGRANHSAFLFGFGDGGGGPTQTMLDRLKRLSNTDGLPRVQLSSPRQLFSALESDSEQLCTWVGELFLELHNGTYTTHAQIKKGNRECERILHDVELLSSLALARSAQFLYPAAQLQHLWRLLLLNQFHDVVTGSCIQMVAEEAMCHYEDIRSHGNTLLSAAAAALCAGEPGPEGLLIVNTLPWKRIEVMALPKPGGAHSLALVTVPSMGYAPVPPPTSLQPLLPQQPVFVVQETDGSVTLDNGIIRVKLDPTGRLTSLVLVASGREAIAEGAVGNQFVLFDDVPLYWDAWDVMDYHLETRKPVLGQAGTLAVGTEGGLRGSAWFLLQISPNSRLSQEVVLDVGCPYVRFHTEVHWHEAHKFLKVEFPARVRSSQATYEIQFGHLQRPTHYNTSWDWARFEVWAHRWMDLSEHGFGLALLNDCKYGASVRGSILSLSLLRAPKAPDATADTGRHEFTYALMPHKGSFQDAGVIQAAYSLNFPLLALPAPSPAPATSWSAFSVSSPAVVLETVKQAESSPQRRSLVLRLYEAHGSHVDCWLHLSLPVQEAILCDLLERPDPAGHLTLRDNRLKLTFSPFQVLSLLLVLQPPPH
measure name: pIC50
Schema: pIC50 number; meaning minus log10 of the concentration expressed in molar units.

**Query** Missing value: pIC50, MAN2C1 (Homo sapiens, UniProt Q9NTJ4), entry O=S1(=O)N[C@@H]2[C@@H](O)[C@@H](O)[C@H](O)[C@@H](CO)[C@H]2O1 [compound 6, 1,6-trans-manno-cyclosulfamidate] . Fill in?
**Result** 5.46
